# experimental.target: H1 1-121 (delta72) S19C (mouse)
# assay.name: FRET competition
# measurement.conditions: 150 mM KCl (20 mM KCl for four-way junction and 4WJDNA); room temperature pre-incubation for competition; buffer and pH not given (HI-FI assay, ref 23)
pKd: −log10 of the molar value.
Form field: pKd (one value per entry).

{"columns": ["input.sequence", "pKd"],
 "data": [
  ["ATCCCTATACGCGGCCGCCCTGGAGAATCCCGGTGCCGAGGCCGCTCAATTGGTCGTAGACAGCTCTAGCACCGCTTAAACGCACGTACGCGCTGTCCCCCGCGTTTTAACCGCCAAGGGGATTACTCCCTAGTCTCCAGGCACGTGTCAGATATATACATCCGAT (double strand) [A18/1 nucleosome]", 8.09],
  ["TCGGGATACGCGGCCGCCCTGGAGAATCCCGGTGCCGAGGCCGCTCAATTGGTCGTAGACAGCTCTAGCACCGCTTAAACGCACGTACGCGCTGTCCCCCGCGTTTTAACCGCCAAGGGGATTACTCCCTAGTCTCCAGGCACGTGTCAGATATATACATCCTGTGCATGTATTGAC (double strand) [S17/13 nucleosome]", 9.02],
  ["CGAGCCAGGCCTGAGAATCCGGTGCCGAGGCCGCTCAATTGGTCGTAGACAGCTCTAGCACCGCTTAAACGCACGTACGCGCTGTCCCCCGCGTTTTAACCGCCAAGGGGATTACTCCCTAGTCTCCAGGCACGTGTCAGATATATACATCCAGGCCTTGTGTCG (double strand) [S7/11 nucleosome]", 8.49],
  ["ATCTAATACTAGGACCCTATACGCGGCCGCATCGGAGAATCCCGGTGCCGAGGCCGCTCAATTGGTCGTAGACAGCTCTAGCACCGCTTAAACGCACGTACGCGCTGTCCCCCGCGTTTTAACCGCCAAGGGGATTACTCCCTAGTCTCCAGGCACGTGTCAGATATATACATCGATTGCATGTGGATCCGAATTCATATTAATGAT (double strand) [S30/30 nucleosome]", 8.73],
  ["AGGCCTGAGAATCCGGTGCCGAGGCCGCTCAATTGGTCGTAGACAGCTCTAGCACCGCTTAAACGCACGTACGCGCTGTCCCCCGCGTTTTAACCGCCAAGGGGATTACTCCCTAGTCTCCAGGCACGTGTCAGATATATACATCCAGGCCTTGTGTC (double strand) [A1/10 nucleosome]", 7.36]
]}

* * *

# experimental.target: H1FL (H1 11-193 in Table 1, i.e. residues 1-193) S19C (mouse)
# assay.name: FRET competition
# measurement.conditions: 150 mM KCl (20 mM KCl for four-way junction and 4WJDNA); room temperature pre-incubation for competition; buffer and pH not given (HI-FI assay, ref 23)
pKd: −log10 of the molar value.
readout.type: pKd

{"columns": ["input.sequence", "readout.type", "quantitative.result"],
 "data": [
  ["TCGGGATACGCGGCCGCCCTGGAGAATCCCGGTGCCGAGGCCGCTCAATTGGTCGTAGACAGCTCTAGCACCGCTTAAACGCACGTACGCGCTGTCCCCCGCGTTTTAACCGCCAAGGGGATTACTCCCTAGTCTCCAGGCACGTGTCAGATATATACATCCTGTGCATGTATTGAC (double strand) [S17/13 nucleosome]", "pKd", 9.64],
  ["ATCCCTATACGCGGCCGCCCTGGAGAATCCCGGTGCCGAGGCCGCTCAATTGGTCGTAGACAGCTCTAGCACCGCTTAAACGCACGTACGCGCTGTCCCCCGCGTTTTAACCGCCAAGGGGATTACTCCCTAGTCTCCAGGCACGTGTCAGATATATACATCCGAT (double strand) [A18/1 nucleosome]", "pKd", 9.87],
  ["ATCTAATACTAGGACCCTATACGCGGCCGCATCGGAGAATCCCGGTGCCGAGGCCGCTCAATTGGTCGTAGACAGCTCTAGCACCGCTTAAACGCACGTACGCGCTGTCCCCCGCGTTTTAACCGCCAAGGGGATTACTCCCTAGTCTCCAGGCACGTGTCAGATATATACATCGATTGCATGTGGATCCGAATTCATATTAATGAT (double strand) [S30/30 nucleosome]", "pKd", 10.75],
  ["CGAGCCAGGCCTGAGAATCCGGTGCCGAGGCCGCTCAATTGGTCGTAGACAGCTCTAGCACCGCTTAAACGCACGTACGCGCTGTCCCCCGCGTTTTAACCGCCAAGGGGATTACTCCCTAGTCTCCAGGCACGTGTCAGATATATACATCCAGGCCTTGTGTCG (double strand) [S7/11 nucleosome]", "pKd", 8.76]
]}

Reference for the values: paper PMC4707517
